- STUDY TARGET: Aurora‐A (Homo sapiens, UniProt O14965, C290A/C393A)
- Construct: pET30TEV Aurora‐A 122–403 C290A, C393A; made in house
- Sequence (O14965 122-403 C290A/C393A): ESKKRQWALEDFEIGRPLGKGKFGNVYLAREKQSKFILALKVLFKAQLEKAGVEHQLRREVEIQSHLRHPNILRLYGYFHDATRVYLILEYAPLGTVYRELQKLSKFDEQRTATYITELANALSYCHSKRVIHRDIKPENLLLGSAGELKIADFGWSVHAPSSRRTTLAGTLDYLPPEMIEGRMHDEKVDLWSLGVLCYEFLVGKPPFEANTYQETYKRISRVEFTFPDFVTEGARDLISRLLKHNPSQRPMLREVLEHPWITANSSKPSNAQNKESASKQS
- METHOD NOTES: FP binding assay, FAM-TACC3 peptides to Aurora‐A (WT)
- PARTICULARS: fluorescence polarization, FAM‐labelled peptide, triplicate, one‐site total binding fit; legend: mean of three experiments ± SD; methods: K d ± SE; read-out: K d (binding affinity)
pKd: −log10 of the molar value. No end group written: not given here.

- CHAIN SEQUENCE: "ELKEESFRDPAEVLGTGAEVDYLEQFGTSSFKESALRKQSLYLKFDPLLRDS [FAM‐TACC3 519–570]"
  pKd: 5.52
